Molecular target: Tyrosine-protein kinase ABL1 (Homo sapiens)
Sequence (P00519 whole entry): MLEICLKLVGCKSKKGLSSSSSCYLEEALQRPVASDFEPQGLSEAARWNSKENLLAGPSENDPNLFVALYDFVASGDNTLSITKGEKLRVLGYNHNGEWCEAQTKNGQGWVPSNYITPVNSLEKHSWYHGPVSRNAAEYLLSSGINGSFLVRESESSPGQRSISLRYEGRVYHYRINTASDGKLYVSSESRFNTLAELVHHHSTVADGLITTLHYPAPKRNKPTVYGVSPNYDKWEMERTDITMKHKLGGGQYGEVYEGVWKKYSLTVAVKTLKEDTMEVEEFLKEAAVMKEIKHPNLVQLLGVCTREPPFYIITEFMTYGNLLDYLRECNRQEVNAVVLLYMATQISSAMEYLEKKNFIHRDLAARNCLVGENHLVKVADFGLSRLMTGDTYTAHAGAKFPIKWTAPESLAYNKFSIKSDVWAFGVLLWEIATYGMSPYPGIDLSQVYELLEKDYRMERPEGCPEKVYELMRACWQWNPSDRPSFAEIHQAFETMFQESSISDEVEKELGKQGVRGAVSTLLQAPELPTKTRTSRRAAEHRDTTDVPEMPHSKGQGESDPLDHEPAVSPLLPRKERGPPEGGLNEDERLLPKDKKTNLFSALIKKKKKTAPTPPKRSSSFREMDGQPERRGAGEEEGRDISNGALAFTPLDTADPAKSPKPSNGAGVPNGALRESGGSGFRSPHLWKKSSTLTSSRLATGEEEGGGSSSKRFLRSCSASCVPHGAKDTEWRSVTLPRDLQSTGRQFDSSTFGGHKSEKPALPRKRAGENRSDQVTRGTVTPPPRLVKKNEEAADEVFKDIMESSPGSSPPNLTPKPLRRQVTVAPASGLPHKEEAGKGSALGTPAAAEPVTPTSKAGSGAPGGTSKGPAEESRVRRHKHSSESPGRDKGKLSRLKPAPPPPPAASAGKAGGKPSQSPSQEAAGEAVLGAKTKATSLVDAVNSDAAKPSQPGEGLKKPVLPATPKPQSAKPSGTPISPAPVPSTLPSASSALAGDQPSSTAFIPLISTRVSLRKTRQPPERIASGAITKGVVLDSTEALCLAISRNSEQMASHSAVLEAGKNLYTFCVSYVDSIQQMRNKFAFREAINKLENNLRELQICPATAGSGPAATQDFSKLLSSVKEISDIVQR
Reported Endpoint: IC50 (µM)

Chem Smiles	Reported Endpoint	Reading Unit	Value Measured
COc1ccc(CNc2ccnc3oc4ccccc4c23)cc1	IC50	µM	392

* * *

Observed Ki values for Epidermal growth factor receptor (Homo sapiens, UniProt P00533) are listed in what follows.
Reported Endpoint: Ki

Chem Smiles	Value Measured
c1ccc(CCNc2ccnc3oc4ccccc4c23)cc1	3.45 µM
c1cncc(CNc2ccnc3oc4ccccc4c23)c1	> 1000 µM
Clc1cccc(CNc2ccnc3oc4ccccc4c23)c1	> 1000 µM
Clc1ccc(CNc2ccnc3oc4ccccc4c23)cc1	0.5 µM

* * *

Biological target: Mitogen-activated protein kinase 3 (Homo sapiens, UniProt P27361)
Sequence (P27361 whole entry): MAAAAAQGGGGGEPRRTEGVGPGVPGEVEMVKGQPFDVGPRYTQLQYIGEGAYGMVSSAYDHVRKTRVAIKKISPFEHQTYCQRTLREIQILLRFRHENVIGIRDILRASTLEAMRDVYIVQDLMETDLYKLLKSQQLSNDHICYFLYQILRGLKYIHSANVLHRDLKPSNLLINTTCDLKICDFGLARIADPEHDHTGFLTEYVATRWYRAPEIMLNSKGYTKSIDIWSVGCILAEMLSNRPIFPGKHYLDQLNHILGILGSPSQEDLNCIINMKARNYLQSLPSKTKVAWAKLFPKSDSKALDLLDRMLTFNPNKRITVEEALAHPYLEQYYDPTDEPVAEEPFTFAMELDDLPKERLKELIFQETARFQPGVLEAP
Assay: Inhibition of human ERK1
pKi: −log10 of the molar value.
Reported Endpoint: pKi

Chem Smiles	Value Measured
COc1ccc(CNc2ccnc3oc4ccccc4c23)cc1	< 3.00
